measurement protocol: LC-MS stability in phosphate buffer saline at 37°C
Format: physicochemical
condition notes: phosphate buffered saline, pH 7.2
measurement name: half-life (h)

>  <compound>
COC(=O)C(C)NP(=O)(OCC1OC(C)(C)OC1C(=O)NO)Oc1ccccc1 (stereo not shown)

>  <measurement name>
half-life

>  <units text>
h

>  <quantitative readout>
5

$$$$

Values compiled from paper PMC2248282.
